# IC50 per entry
- Tested on: HT-29 colorectal adenocarcinoma cells
- experiment-notes: Colony forming (clonogenic) assay
- Type: cell-based, human
- particulars: Homo sapiens; HT-29, 72 h treatment, 14 days of incubation, n = 3

{"columns": ["compound", "experimental-target", "IC50"],
 "data": [
  ["O=C1C2=C(C(=O)c3c(O)cccc31)C(c1cc(Cl)ccc1O)c1sc(=O)[nH]c1S2 (stereo not drawn) [Les-6547]", "HT-29 colorectal adenocarcinoma cells", "~500 nM"],
  ["O=C1C2=C(C(=O)c3c(O)cccc31)C(c1ccc(Cl)cc1)c1sc(=O)[nH]c1S2 (stereo not drawn) [Les-6557]", "HT-29 colorectal adenocarcinoma cells", "~500 nM"],
  ["COc1cccc2c1C(=O)c1c(O)c3c(c(O)c1C2=O)C[C@@](O)(C(=O)CO)C[C@@H]3O[C@H]1C[C@H](N)[C@H](O)[C@H](C)O1 [Doxorubicin, doxorubicin, reference compound]", "HT-29 colorectal adenocarcinoma cells", "~500 nM"]
]}

---

- Tested on: HT-29 colorectal adenocarcinoma cells
- experiment-notes: MTT assay
- Type: cell-based
- particulars: Homo sapiens; HT-29, MTT, 48 h, M ± SD, n = 3; read-out: IC50
# IC50 per entry

{"columns": ["molecule", "IC50 [µM]"],
 "data": [
  ["O=C1C2=C(C(=O)c3c(O)cccc31)C(c1ccc(Cl)cc1)c1sc(=O)[nH]c1S2 (stereo not drawn) [Les-6557]", 6.54],
  ["O=C1C2=C(C(=O)c3c(O)cccc31)C(c1cc(Cl)ccc1O)c1sc(=O)[nH]c1S2 (stereo not drawn) [Les-6547]", 4.29],
  ["COc1cccc2c1C(=O)c1c(O)c3c(c(O)c1C2=O)C[C@@](O)(C(=O)CO)C[C@@H]3O[C@H]1C[C@H](N)[C@H](O)[C@H](C)O1 [Doxorubicin, doxorubicin, reference compound]", 1.55]
]}

---

# IC50 per entry
- Test system: HT-29 colorectal adenocarcinoma cells
- experiment-notes: [^3H]-thymidine incorporation assay (DNA biosynthesis)
- Assay type: cell-based
- particulars: Homo sapiens; HT-29, 24 h, M ± SD, n = 3

{"columns": ["molecule", "experimental-target", "unit", "IC50"],
 "data": [
  ["COc1cccc2c1C(=O)c1c(O)c3c(c(O)c1C2=O)C[C@@](O)(C(=O)CO)C[C@@H]3O[C@H]1C[C@H](N)[C@H](O)[C@H](C)O1 [Doxorubicin, doxorubicin, reference compound]", "HT-29 colorectal adenocarcinoma cells", "µM", 4.72],
  ["O=C1C2=C(C(=O)c3c(O)cccc31)C(c1cc(Cl)ccc1O)c1sc(=O)[nH]c1S2 (stereo not drawn) [Les-6547]", "HT-29 colorectal adenocarcinoma cells", "µM", 2.21],
  ["O=C1C2=C(C(=O)c3c(O)cccc31)C(c1ccc(Cl)cc1)c1sc(=O)[nH]c1S2 (stereo not drawn) [Les-6557]", "HT-29 colorectal adenocarcinoma cells", "µM", 2.91]
]}

---

- System: DLD-1 colorectal adenocarcinoma cells
- experiment-notes: MTT assay
- Type: cell-based, human
- particulars: Homo sapiens; DLD-1, MTT, 48 h, M ± SD, n = 3; read-out: IC50
pIC50: −log10 of the molar value.
# pIC50 per entry

{"columns": ["compound", "pIC50"],
 "data": [
  ["O=C1C2=C(C(=O)c3c(O)cccc31)C(c1ccc(Cl)cc1)c1sc(=O)[nH]c1S2 (stereo not drawn) [Les-6557]", 5.71],
  ["COc1cccc2c1C(=O)c1c(O)c3c(c(O)c1C2=O)C[C@@](O)(C(=O)CO)C[C@@H]3O[C@H]1C[C@H](N)[C@H](O)[C@H](C)O1 [Doxorubicin, doxorubicin, reference compound]", 5.70],
  ["O=C1C2=C(C(=O)c3c(O)cccc31)C(c1cc(Cl)ccc1O)c1sc(=O)[nH]c1S2 (stereo not drawn) [Les-6547]", 5.29]
]}

---

- Tested on: DLD-1 colorectal adenocarcinoma cells
- experiment-notes: Colony forming (clonogenic) assay
- Type: cell-based, human
- particulars: Homo sapiens; DLD-1, 72 h treatment, 14 days of incubation, M ± SD, n = 3

{"columns": ["compound", "unit", "IC50"],
 "data": [
  ["COc1cccc2c1C(=O)c1c(O)c3c(c(O)c1C2=O)C[C@@](O)(C(=O)CO)C[C@@H]3O[C@H]1C[C@H](N)[C@H](O)[C@H](C)O1 [Doxorubicin, doxorubicin, reference compound]", "nM", 3230],
  ["O=C1C2=C(C(=O)c3c(O)cccc31)C(c1ccc(Cl)cc1)c1sc(=O)[nH]c1S2 (stereo not drawn) [Les-6557]", "nM", 330],
  ["O=C1C2=C(C(=O)c3c(O)cccc31)C(c1cc(Cl)ccc1O)c1sc(=O)[nH]c1S2 (stereo not drawn) [Les-6547]", "nM", 400]
]}
